# experiment.notes: in vitro acetaldehyde toxicity assay
# Format: cell-based
# condition.description: human, Jurkat cells; higher concentrations (500 uM and 1 mM), day 3, FIG. 1; read-out: viable cell numbers as % of starting number
measured.endpoint: viability at 3 days (%)
// units = %; emit number, no label

Let me know recorded viability at 3 days for `CC=O` , thanks.
7

* * *

# experiment.notes: in vitro acetaldehyde and cisplatin toxicity assay
# Assay type: cell-based
# condition.description: human, Daudi cells; higher concentrations (500 uM and 1 mM), day 3, FIG. 1; read-out: viable cell numbers as % of starting number
measured.endpoint: viability at 3 days (%)
Give just the numeric value; % need not be written.

Name the recorded viability at 3 days of the molecule listed here: `CC=O`
37
